These entries and their values trace back to patent US11498896B2.

Consider the following compounds and their measured pEC50 readings.
Biological target: human D2R/β-arrestin (Homo sapiens (Human))
Experiment: Gi/cAMP agonist assay (Lance Ultra cAMP, forskolin)
Format: cell-based
Conditions: CHO-K1 cells expressing human D2R/β-arrestin; agonist mode, 2.5 μM forskolin
pEC50: −log10 of the molar value.

Reported human D2R/β-arrestin (Homo sapiens (Human)) pEC50 for item CC1(Oc2ccc(F)cc2)CCN(CCOc2ccccc2)C1 (centres unmarked) was > 7.00

Reported human D2R/β-arrestin (Homo sapiens (Human)) pEC50 for item CC1(C(=O)NC2CC2)CCN(CC2COc3ccccc3O2)CC1 (single isomer, unassigned) [Compound 203a] was > 7.00

Reported human D2R/β-arrestin (Homo sapiens (Human)) pEC50 for item CC1(Oc2ccncc2)CCN(CCOc2ccccc2)C1 (centres unmarked) [Example 59] was > 7.00

Further cases:
Reported human D2R/β-arrestin (Homo sapiens (Human)) pEC50 for item CC1(Oc2ccc(Cl)cc2)CCN(CCOc2cccc(F)c2)C1 (centres unmarked) was > 7.00

Reported human D2R/β-arrestin (Homo sapiens (Human)) pEC50 for item CC1(Oc2ccc(Cl)cc2)CCN(CCOc2cccc(Cl)c2)C1 (centres unmarked) was > 7.00

###

Molecular target: human D2R/β-arrestin (Homo sapiens (Human), UniProt P14416)
Sequence (P14416 whole entry): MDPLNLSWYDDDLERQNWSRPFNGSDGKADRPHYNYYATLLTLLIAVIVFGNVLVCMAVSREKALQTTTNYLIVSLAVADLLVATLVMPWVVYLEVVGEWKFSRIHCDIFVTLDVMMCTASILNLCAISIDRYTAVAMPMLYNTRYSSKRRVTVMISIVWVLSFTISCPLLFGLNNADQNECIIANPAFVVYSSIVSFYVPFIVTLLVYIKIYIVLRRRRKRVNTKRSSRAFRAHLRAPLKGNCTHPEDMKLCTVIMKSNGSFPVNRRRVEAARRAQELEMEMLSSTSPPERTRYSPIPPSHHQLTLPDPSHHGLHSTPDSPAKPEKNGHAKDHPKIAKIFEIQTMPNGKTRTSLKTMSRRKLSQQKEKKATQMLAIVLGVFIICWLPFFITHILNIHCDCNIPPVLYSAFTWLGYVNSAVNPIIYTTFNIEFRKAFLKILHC
Test: β-arrestin agonist assay (PathHunter)
Assay type: cell-based
Conditions: CHO-K1 cells expressing human D2R/β-arrestin; agonist mode
Consider the following compounds and their measured EC50 readings.

Reported human D2R/β-arrestin (Homo sapiens (Human), UniProt P14416) EC50 for item CC1(Oc2ccc(N)cc2)CCN(CCOc2ccccc2)C1 (stereo not shown) was 0.1 to 1 µM

Reported human D2R/β-arrestin (Homo sapiens (Human), UniProt P14416) EC50 for item COc1ccccc1OCCN1CCC(C)(O)CC1 [Compound 301, reference compound] was > 30 µM

Reported human D2R/β-arrestin (Homo sapiens (Human), UniProt P14416) EC50 for item c1ccc(OCCN2CCC3(Cc4ccccc4O3)C2)cc1 (stereo not shown) was > 30 µM

Reported human D2R/β-arrestin (Homo sapiens (Human), UniProt P14416) EC50 for item CC1(Oc2ccc(Cl)cc2)CCN(CCOc2ccc3ccc(=O)[nH]c3c2)C1 (stereo not shown) was > 30 µM

Further cases:
Reported human D2R/β-arrestin (Homo sapiens (Human), UniProt P14416) EC50 for item CC1(Oc2ccc(Cl)cc2)CCN(CCOc2ccc3ncsc3c2)C1 (stereo not shown) [Compound 18] was > 30 µM

Reported human D2R/β-arrestin (Homo sapiens (Human), UniProt P14416) EC50 for item `CC1(Oc2ccc(Cl)cc2)CCN(CCOc2ccccc2)CC1` was 0.1 to 1 µM

Reported human D2R/β-arrestin (Homo sapiens (Human), UniProt P14416) EC50 for item Cc1ccccc1OCCN1CCC(C)(Oc2ccc(Cl)cc2)C1 (stereo not shown) was > 30 µM

Reported human D2R/β-arrestin (Homo sapiens (Human), UniProt P14416) EC50 for item `CNC(=O)C1(C)CCN(CCOc2ccccc2OC)CC1` was > 30 µM

Reported human D2R/β-arrestin (Homo sapiens (Human), UniProt P14416) EC50 for item CC1(Oc2ccc(Cl)cc2)CCN(CCOc2ccccc2Cl)C1 (stereo not shown) was > 30 µM

Reported human D2R/β-arrestin (Homo sapiens (Human), UniProt P14416) EC50 for item CC1(Oc2cccc(C(F)(F)F)c2)CCCN(CCOc2cc(F)ccc2F)C1 (stereo not shown) was > 30 µM

Reported human D2R/β-arrestin (Homo sapiens (Human), UniProt P14416) EC50 for item CC1(Oc2ccc(Cl)cc2)CCN(CCOc2ccccc2C(F)(F)F)C1 (stereo not shown) was > 30 µM

Reported human D2R/β-arrestin (Homo sapiens (Human), UniProt P14416) EC50 for item `CC1(Oc2ccc(Cl)cc2)CCN(CCOc2ccc(F)cc2)CC1` was 0.1 to 1 µM

Reported human D2R/β-arrestin (Homo sapiens (Human), UniProt P14416) EC50 for item CC1(Oc2ccc(Cl)cc2)CCN(CCOc2ccc(Cl)cc2)C1 (stereo not shown) was > 30 µM

###

Consider the following compounds and their measured pIC50 readings.
Biological target: human D2R/β-arrestin (Homo sapiens (Human))
Assay: cell-based
Settings: β-arrestin Antagonist, CHO-K1 cells expressing human D2R/β-arrestin; antagonist mode, quinpirole 130 nM
pIC50: −log10 of the molar value.

// recorded pIC50 for `C[C@@]1(O)C[C@H]2CC[C@@H](C1)N2CCOc1ccccc1C(F)(F)F` : 4.52 to 5.00

// recorded pIC50 for CC1(Oc2ccc(Cl)cc2)CCN(CCOc2ccc3ccc(=O)[nH]c3c2)C1 (stereo not shown) : 5.00 to 6.00

// recorded pIC50 for CC1(Oc2ccc(Cl)cc2)CCN(CCn2ccccc2=O)C1 (stereo not shown) : < 4.52

// recorded pIC50 for `COc1ccc(F)cc1OCCN1CCC(C)(Oc2ccc(Cl)cc2)CC1` : 6.00 to 7.00

// recorded pIC50 for `CNC(=O)C1(C)CCN(CCOc2ccccc2OC)CC1` : 5.00 to 6.00

// recorded pIC50 for `CC1(Oc2ccc(Cl)cc2)CCN(CCNc2ccccc2C(F)(F)F)CC1` : 5.00 to 6.00

Now consider a different compound.
// recorded pIC50 for `CNC(=O)C1(C)CCN(CCOc2ccccc2)CC1` : 5.00 to 6.00

###

Target: human D2R/β-arrestin (Homo sapiens (Human))
Assay: cell-based
Settings: cAMP Antagonist, CHO-K1 cells expressing human D2R/β-arrestin; antagonist mode, 2.5 μM forskolin and 2.7 nM quinpirole
pIC50: −log10 of the molar value.
Consider the following compounds and their measured pIC50 readings.

// below: answered compounds
// recorded pIC50 for CNC(=O)C1(C)CCN(CC2COc3ccccc3O2)CC1 (single isomer, unassigned) [Compound 202a] : 5.00 to 6.00

// recorded pIC50 for FC(F)(F)c1ccccc1OCCN1CCC2(CC1)CCN2c1ccc(Cl)cc1 [Compound 136] : > 7.00

Further cases:
// recorded pIC50 for CCc1ccccc1OCCN1CCC(C)(Oc2ccccc2)CC1 [Example 70] : 4.52 to 5.00

// recorded pIC50 for CC1(Oc2ccc(Cl)cc2)CCN(CCOc2cc(F)ccc2C(F)(F)F)CC1 [Compound 122] : < 4.52

// recorded pIC50 for COc1cc(F)ccc1OCCN1CCC(C)(Oc2ccc(Cl)cc2)CC1 [Compound 160] : 6.00 to 7.00

###

Consider the following compounds and their measured EC50 readings.
Target: human D2R/β-arrestin (Homo sapiens (Human))
Assay: Gi/cAMP agonist assay (Lance Ultra cAMP, forskolin)
Type: cell-based
Conditions: CHO-K1 cells expressing human D2R/β-arrestin; agonist mode, 2.5 μM forskolin

// below: answered compounds
// recorded EC50 for `CC(=O)N(C)C1(C)CCN(C[C@H]2COc3ccccc3O2)CC1` : 1 to 10 µM

// recorded EC50 for CC1(Oc2ccccc2)CCN(CCOc2ccccc2)C1 (stereo not drawn) : < 0.1 µM

// recorded EC50 for CC(O)c1ccc(OCCN2CCC(C)(Oc3ccc(Cl)cc3)CC2)cc1 (stereo not drawn) : > 30 µM

// recorded EC50 for `CC(=O)NC1(C)CCN(C[C@H]2COc3ccc(F)cc3O2)CC1` : < 0.1 µM

// recorded EC50 for CC1(N)CCN(C[C@H]2COc3ccccc3O2)CC1 [Compound 303, reference compound] : 0.1 to 1 µM

// recorded EC50 for `CC1(Oc2ccc(Cl)cc2)CCN(CCOc2ncccc2C(F)(F)F)CC1` : 1 to 10 µM

// recorded EC50 for `CC1(Oc2ccc(Cl)cc2)CCN(CCOc2ccc(S(C)(=O)=O)cc2)CC1` : 10 to 30 µM

// recorded EC50 for CC1(O)CCN(CCOc2ccccc2C(F)(F)F)C1 (stereo not drawn) : > 30 µM

// recorded EC50 for CC1(Oc2ccc(N)cc2)CCN(CCOc2ccccc2)C1 (stereo not drawn) : < 0.1 µM

// recorded EC50 for CC1(Oc2ccc(Cl)cc2)CCN(CCOc2ccc(C(F)(F)F)cc2)C1 (stereo not drawn) : > 30 µM

Further cases:
// recorded EC50 for `CC1(Oc2ccc(Cl)cc2)CCN(CCOc2ccccc2Cl)CC1` : < 0.1 µM

// recorded EC50 for CC1(Oc2ccccc2)CC2CCC(C1)N2CCOc1ccccc1C(F)(F)F (stereo not drawn) : 10 to 30 µM

###

Target: human D2R/β-arrestin (Homo sapiens (Human), UniProt P14416)
Assay: Gi/cAMP agonist assay (Lance Ultra cAMP, forskolin)
Format: cell-based
Conditions: CHO-K1 cells expressing human D2R/β-arrestin; agonist mode, 2.5 μM forskolin
Consider the following compounds and their measured EC50 readings.

// below: answered compounds
// recorded EC50 for CC1(Oc2ccccc2[N+](=O)[O-])CCN(CCOc2ccccc2)C1 (stereo not shown) [Example 45] : < 100 nM

// recorded EC50 for OCC1(Cc2ccc(Cl)cc2)CCN(CCOc2ccccc2C(F)(F)F)CC1 [Compound 214] : 1000 to 10000 nM

Further cases:
// recorded EC50 for CC1(Oc2cccc(F)c2)CCN(CCOc2ccccc2)C1 (stereo not shown) [Example 52] : < 100 nM

// recorded EC50 for COc1cc(F)c(F)cc1OCCN1CCC(C)(Oc2ccc(Cl)cc2)CC1 [Compound 189] : 1000 to 10000 nM

// recorded EC50 for CC1(Oc2ccc(Cl)cc2)CCCN(CCOc2ccccc2Cl)C1 (stereo not shown) [Example 97] : > 30000 nM

// recorded EC50 for FC(F)(F)c1ccccc1OCCN1CCC2(CC1)CCN2c1ccc(Cl)cc1 [Compound 136] : > 30000 nM

// recorded EC50 for CC1(Oc2ccccc2)CCN(CCOc2ccccc2OC(F)(F)F)CC1 [Example 110] : < 100 nM

// recorded EC50 for CC1(Oc2ccc(Cl)cc2)CCN(CCOc2ccccc2)C1 (stereo not shown) [Compound 1] : < 100 nM

// recorded EC50 for CC1(Oc2ccccc2)CCN(CCOc2ccccn2)CC1 [Compound 174] : < 100 nM

// recorded EC50 for CC1(Oc2ccc(Cl)cc2)CCN(CCOc2ccc3cccnc3c2)C1 (stereo not shown) [Compound 24] : < 100 nM

// recorded EC50 for COc1ccccc1OCCN1CCC(C)(Oc2ccc(Cl)cc2)C1 (stereo not shown) [Compound 2] : > 30000 nM

// recorded EC50 for CC1(Oc2ccc(Cl)cc2)CCN(CCOc2cn[nH]c2)CC1 [Compound 186] : 100 to 1000 nM

// recorded EC50 for CC1(Oc2ccccc2C(F)(F)F)CCN(CCOc2ccccc2)C1 (stereo not shown) [Example 56] : < 100 nM

// recorded EC50 for CC(=O)N(CCN1CCC(C)(Oc2ccc(Cl)cc2)CC1)c1ccccc1C(F)(F)F [Compound 170] : > 30000 nM

// recorded EC50 for CC1(Oc2ccc(Cl)cc2)CCN(CCOc2cccc(F)c2C(F)(F)F)CC1 [Compound 156] : < 100 nM

// recorded EC50 for CC1(O)CCN(CCOc2ccccc2F)CC1 [Compound 131] : < 100 nM
